Entry source: patent US20130210709A1

Would you mind telling me the reported IC50 (nM), calcium flux, CCRF-CEM of each entry?
Target: CXCR4 receptor (human, UniProt P61073 1-352)
Sequence (P61073 whole entry): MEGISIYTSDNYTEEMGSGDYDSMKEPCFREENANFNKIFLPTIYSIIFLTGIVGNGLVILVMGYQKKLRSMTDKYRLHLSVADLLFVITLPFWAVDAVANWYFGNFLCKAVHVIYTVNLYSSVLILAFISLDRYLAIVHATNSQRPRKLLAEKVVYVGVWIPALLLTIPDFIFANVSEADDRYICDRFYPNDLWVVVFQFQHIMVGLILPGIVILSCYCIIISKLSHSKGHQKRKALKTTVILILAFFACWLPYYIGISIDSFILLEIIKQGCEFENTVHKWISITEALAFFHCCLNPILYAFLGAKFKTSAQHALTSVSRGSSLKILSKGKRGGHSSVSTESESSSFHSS
Assay: cell-based or functional assay
* marks the point of attachment. Palmitoyl = CCCCCCCCCCCCCCCC(=O)*
Quick note: give the figure in nM, leave out the unit.

Exercise: Consider the binder Palmitoyl-MGYAKKLRSMTDKYRL-NH2 (SMILES CCCCCCCCCCCCCCCC(=O)N[C@@H](CCSC)C(=O)NCC(=O)N[C@@H](Cc1ccc(O)cc1)C(=O)N[C@@H](C)C(=O)N[C@@H](CCCCN)C(=O)N[C@@H](CCCCN)C(=O)N[C@@H](CC(C)C)C(=O)N[C@@H](CCCNC(=N)N)C(=O)N[C@@H](CO)C(=O)N[C@@H](CCSC)C(=O)N[C@H](C(=O)N[C@@H](CC(=O)O)C(=O)N[C@@H](CCCCN)C(=O)N[C@@H](Cc1ccc(O)cc1)C(=O)N[C@@H](CCCNC(=N)N)C(=O)N[C@@H](CC(C)C)C(N)=O)[C@@H](C)O) [CXCR4 i1 loop compound 132] . State its measured IC50 (nM), calcium flux, CCRF-CEM.
Solution: 213

Exercise: Consider the binder Palmitoyl-AGYQKKLRSMTDKYRL-NH2 (SMILES CCCCCCCCCCCCCCCC(=O)N[C@@H](C)C(=O)NCC(=O)N[C@@H](Cc1ccc(O)cc1)C(=O)N[C@@H](CCC(N)=O)C(=O)N[C@@H](CCCCN)C(=O)N[C@@H](CCCCN)C(=O)N[C@@H](CC(C)C)C(=O)N[C@@H](CCCNC(=N)N)C(=O)N[C@@H](CO)C(=O)N[C@@H](CCSC)C(=O)N[C@H](C(=O)N[C@@H](CC(=O)O)C(=O)N[C@@H](CCCCN)C(=O)N[C@@H](Cc1ccc(O)cc1)C(=O)N[C@@H](CCCNC(=N)N)C(=O)N[C@@H](CC(C)C)C(N)=O)[C@@H](C)O) [CXCR4 i1 loop compound 129] . State its measured IC50 (nM), calcium flux, CCRF-CEM.
Solution: 197

Exercise: Consider the binder Palmitoyl-MGYQKKLRSMTDAYRL-NH2 (SMILES CCCCCCCCCCCCCCCC(=O)N[C@@H](CCSC)C(=O)NCC(=O)N[C@@H](Cc1ccc(O)cc1)C(=O)N[C@@H](CCC(N)=O)C(=O)N[C@@H](CCCCN)C(=O)N[C@@H](CCCCN)C(=O)N[C@@H](CC(C)C)C(=O)N[C@@H](CCCNC(=N)N)C(=O)N[C@@H](CO)C(=O)N[C@@H](CCSC)C(=O)N[C@H](C(=O)N[C@@H](CC(=O)O)C(=O)N[C@@H](C)C(=O)N[C@@H](Cc1ccc(O)cc1)C(=O)N[C@@H](CCCNC(=N)N)C(=O)N[C@@H](CC(C)C)C(N)=O)[C@@H](C)O) [CXCR4 i1 loop compound 150] . State its measured IC50 (nM), calcium flux, CCRF-CEM.
Solution: 313

Exercise: Consider the binder Palmitoyl-MGYQKKLRSMADKYRL-NH2 (SMILES CCCCCCCCCCCCCCCC(=O)N[C@@H](CCSC)C(=O)NCC(=O)N[C@@H](Cc1ccc(O)cc1)C(=O)N[C@@H](CCC(N)=O)C(=O)N[C@@H](CCCCN)C(=O)N[C@@H](CCCCN)C(=O)N[C@@H](CC(C)C)C(=O)N[C@@H](CCCNC(=N)N)C(=O)N[C@@H](CO)C(=O)N[C@@H](CCSC)C(=O)N[C@@H](C)C(=O)N[C@@H](CC(=O)O)C(=O)N[C@@H](CCCCN)C(=O)N[C@@H](Cc1ccc(O)cc1)C(=O)N[C@@H](CCCNC(=N)N)C(=O)N[C@@H](CC(C)C)C(N)=O) [CXCR4 i1 loop compound 148] . State its measured IC50 (nM), calcium flux, CCRF-CEM.
Solution: 298
